B1: TPR 5TU (parent)
chain: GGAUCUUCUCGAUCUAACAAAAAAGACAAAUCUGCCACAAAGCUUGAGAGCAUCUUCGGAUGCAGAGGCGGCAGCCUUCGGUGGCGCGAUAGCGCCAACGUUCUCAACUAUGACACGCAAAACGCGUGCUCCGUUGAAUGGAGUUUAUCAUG

# Variants of: B1
# protocol text: polymerase ribozyme fitness, log enrichment relative to wild type (log ratio); higher = more active; in vitro selection for triplet polymerase activity
This sample holds only a part of the variants without activity.
Collected polymerase ribozyme fitness (log ratio) values appear next to each entry.

- variant descriptor: "C85G C123G U139A"
  polymerase ribozyme fitness (log ratio): "≤ -4.2"
- variant descriptor: "C54U G86U"
  polymerase ribozyme fitness (log ratio): -1.78
- variant descriptor: "C96U A142C"
  polymerase ribozyme fitness (log ratio): -1.15
- variant descriptor: "U6C A20C A28C A37U G42U G71A C85U C99G A106G C131G"
  polymerase ribozyme fitness (log ratio): "≤ -4.2"
- variant descriptor: "A28U A29U G65A C95G C105G U111G A137C G152C"
  polymerase ribozyme fitness (log ratio): "≤ -4.2"

stdin: State the recorded polymerase ribozyme fitness (log ratio) for this entry: A26C C75U G92C
stdout: ≤ -4.2

stdin: State the recorded polymerase ribozyme fitness (log ratio) for this entry: U31G C57G G58A A106G U111G G143U U144A
stdout: ≤ -4.2

stdin: State the recorded polymerase ribozyme fitness (log ratio) for this entry: A52C G74C C108U A113G U145G
stdout: ≤ -4.2

stdin: State the recorded polymerase ribozyme fitness (log ratio) for this entry: U134C A142C
stdout: -0.0581

stdin: State the recorded polymerase ribozyme fitness (log ratio) for this entry: C36A A73G C96U A121C C131U
stdout: ≤ -4.2

stdin: State the recorded polymerase ribozyme fitness (log ratio) for this entry: A23U A30G G42U A52U U56A C72G C95G C114G U139A
stdout: ≤ -4.2
